# target.under.test: Thyrotropin receptor (Homo sapiens)
# experimental.details: qHTS assay to identify small molecule antagonists of the thyroid stimulating hormone receptor (TSHR) signaling pathway (AID 1259385); also: nearly all actives have a fitted effect of over 20% in size
# test.context: TSHR-HEK293 cAMP HTRF, TSH-stimulated antagonist mode; series mostly up to 92.4 µM
Results filed as inconclusive are left out. The source made the active and inactive calls. Calls follow the shape of the full dose curve.
Permitted responses: active, inactive

GET /call?item= O=C(CCCN1CCC2(CC1)C(=O)NCN2c1ccccc1)c1ccc(F)cc1 returns the recorded outcome of this test.
inactive

GET /call?item= Cc1c(Cl)c(=O)oc2cc(OP(=O)(OCCCl)OCCCl)ccc12 returns the recorded outcome of this test.
inactive

// return assay outcome for CC(C)CC(C)N (stereo not drawn)
inactive

GET /call?item= O=C(CCl)C(Cl)Cl returns the recorded outcome of this test.
inactive

Given c1cc[c]([Sb]([c]2ccccc2)[c]2ccccc2)cc1 , state the outcome it received in this test.
inactive
